Molecular target: T1, human CD115 extracellular domain (Sino Biological 10161-H08H) (human, UniProt P07333 20-517)
T1 construct: extracellular domain; bought recombinant protein; also called huCD115; hu-CD115
Assay: competition ELISA, competitor TMR 95A;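 further: clonal anti-huCD115 hybridoma supernatants tested for binding while a competitor mouse antibody is present, where failure to bind assigns them to that competitor's epitope bin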;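 further: low signal means same epitope bin as the mouse competitor antibody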
Reported signal vs NO COMP=100 is given for each of the following binders.
Response body: numeric value in %, unit text excluded.

CCK-525A (antibody, V domains shown, AlivaMab chimeric IgG, human kappa LC) VH: QVQLVESGGGVVQPGRSLRLSCAASGFTFSSYGMHWVRQAPGKGLEWVAVIWYDGSIKYYADSVKGRFTISRDNSKNTLYLQMNSLRAEDTAVYYCARATYYYDSSGYYSNWFDPWGQGTLVTVSS VL: DIQMTQSPSSVSASVGDRVTITCRASQGISSWLAWYQQKPGKAPKLLIYAASSLQSGVPSRFSGSGSGTDFTLTISSLQPEDFATYYCQQANTFPFTVGPGTKVDIK; 11

Okay, now this binder:
Enquiry: Let me know recorded signal vs NO COMP=100 for CCK-464A (antibody, V domains shown, AlivaMab chimeric IgG, human kappa LC) VH: EVQLVESGGGLVKPGGSLRLSCAASGFTFSSYNMNWVRQAPGKGLEWVSSISSSSTYIYYADSLKGRFTISRDNAMNSLYLQMSSLRAEDTAVYYCARDSGTYPYYYFGMDVWGQGTTVTVSS VL: DIQLTQSPSFLSASVGDRVTITCRASQGISSYLAWYQQKPGKAPKLLIYAASTLQSGVPSRFSGSGSGTEFTLTISSLQPEDFATYYCQQLNTYPRTFGQGTKVEIK , thanks.
Return: 57
